System: SETVI (Setaria viridis)
Test: Postemergence herbicidal evaluation
Format: in vivo, (L.) Beau
Conditions: postemergence, rate 0.0320 kg/ha
METRIC NAME: SETVI herbicidal rating
Answers are plain numbers.

Solved entries:
Cn1c(C(F)(F)F)cc(=O)n(-c2ccc3snc(C4OCC(CO)O4)c3c2)c1=O (stereo not shown) | 4.0
CC1CC(C)(C)OC(c2nsc3ccc(-n4c(=O)cc(C(F)(F)F)n(C)c4=O)cc23)O1 (stereo not shown) | 1.0
CCN=C1NC(=O)C(OC)(c2nsc3ccc(-n4c(=O)cc(C(F)(F)F)n(C)c4=O)cc23)N1 (stereo not shown) | 3.0
Cn1c(C(F)(F)F)cc(=O)n(-c2ccc3snc(C4(O)N=C(C(C)(C)C)NC4=O)c3c2)c1=O (stereo not shown) | 4.0
CC(C)C1COC(c2nsc3ccc(-n4c(=O)cc(C(F)(F)F)n(C)c4=O)cc23)=N1 (stereo not shown) | 2.0

Record SETVI herbicidal rating for all entries; do not skip any.
1. Cn1c(C(F)(F)F)cc(=O)n(-c2ccc3snc(C4OCCCS4)c3c2)c1=O (stereo not shown)
2. CC1=CC(C)(C)OC(c2nsc3ccc(-n4c(=O)cc(C(F)(F)F)n(C)c4=O)cc23)C1 (stereo not shown)
3. Cn1c(C(F)(F)F)cc(=O)n(-c2ccc3snc(C4OCC(CS(C)(=O)=O)O4)c3c2)c1=O (single isomer, unassigned)
4. COCC1COC(c2nsc3ccc(-n4c(=O)cc(C(F)(F)F)n(C)c4=O)cc23)O1 (stereo not shown)

Result ::
1: 9.0; 2: 3.0; 3: 6.0; 4: 6.0

Hi team, please reply with SETVI herbicidal rating for each item in this list.
1. Cn1c(C(F)(F)F)cc(=O)n(-c2ccc3snc(C4OC(C)(C)C(C)(C)O4)c3c2)c1=O
2. Cn1c(C(F)(F)F)cc(=O)n(-c2ccc3snc(C4OCC5(CO4)CO5)c3c2)c1=O (stereo not shown)
3. Cc1cnn(-c2nsc3ccc(-n4c(=O)cc(C(F)(F)F)n(C)c4=O)cc23)c1
4. Cn1c(C(F)(F)F)cc(=O)n(-c2ccc3snc(-c4sccc4CBr)c3c2)c1=O
5. Cn1c(C(F)(F)F)cc(=O)n(-c2ccc3snc(C4OCC(C[S+](C)[O-])O4)c3c2)c1=O (stereo not shown)
6. CSCC1COC(c2nsc3ccc(-n4c(=O)cc(C(F)(F)F)n(C)c4=O)cc23)O1 (stereo not shown)

Result ::
[2.0, 9.0, 0.0, 2.0, 9.0, 6.0]

Query :: Consider the molecule shown here: C[C@@H]1C[C@H](C)OC(c2nsc3ccc(-n4c(=O)cc(C(F)(F)F)n(C)c4=O)cc23)O1 (stereo partly shown) What is its recorded SETVI herbicidal rating?
Result :: 9.0

====

Please provide measured Postemergence herbicidal rating, ZEAMX for the entries that follow.
Tested on: ZEAMX (Corn, Field)
Assay: Postemergence herbicidal evaluation
Format: in vivo, Zea mays, L.
Details: rate 0.0320 kg/ha
Answers are plain numbers.

Field: example entries. Status: answers known.
CCOc1cc(OCC)nc(-c2nsc3ccc(-n4c(=O)cc(C(F)(F)F)n(C)c4=O)cc23)n1 | 4.5
Cc1ccc(-c2nsc3ccc(-n4c(=O)cc(C(F)(F)F)n(C)c4=O)cc23)s1 | 5.0
COC(=O)C(C)Oc1ccsc1-c1nsc2ccc(-n3c(=O)cc(C(F)(F)F)n(C)c3=O)cc12 (stereo not drawn) | 5.0
Cn1c(C(F)(F)F)cc(=O)n(-c2ccc3snc(C4OCC(C)(C)CO4)c3c2)c1=O | 5.0
Cc1cccnc1-c1nsc2cc(F)c(-n3c(=O)cc(C(F)(F)F)n(C)c3=O)cc12 | 5.0

Query :: # lookup: Postemergence herbicidal rating, ZEAMX of "CN(C(=O)c1nsc2ccc(-n3c(=O)cc(C(F)(F)F)n(C)c3=O)cc12)c1ccc(Cl)cc1"
Result :: 5.0

====

Would you kindly list ORYSAT herbicidal rating for each of these compounds?
Test system: ORYSAT (Rice, Tebonnet)
Experiment: Postemergence herbicidal evaluation
Type: in vivo, Oryza sativa, (L.) Tebonnet
Conditions: postemergence, rate 0.0620 kg/ha
Give bare numbers.

Cn1c(C(F)(F)F)cc(=O)n(-c2ccc3snc(-c4sccc4CBr)c3c2)c1=O | 3.5
Cn1c(C(F)(F)F)cc(=O)n(-c2ccc3snc(C4OCC(c5ccccc5)O4)c3c2)c1=O (stereo not shown) | 4.0
Cc1cnn(-c2nsc3ccc(-n4c(=O)cc(C(F)(F)F)n(C)c4=O)cc23)c1 | 2.5

List reported ORYSAT herbicidal rating for each of these compounds:
1. Cn1c(C(F)(F)F)cc(=O)n(-c2ccc3snc(C4OCC(C[S+](C)[O-])O4)c3c2)c1=O (stereo not shown)
2. Cn1c(C(F)(F)F)cc(=O)n(-c2ccc3snc(C4OCC(CO)O4)c3c2)c1=O (stereo not shown)
3. Cn1c(C(F)(F)F)cc(=O)n(-c2ccc3snc(C4OCC(CCl)O4)c3c2)c1=O (stereo not shown)
4. COCC1COC(c2nsc3ccc(-n4c(=O)cc(C(F)(F)F)n(C)c4=O)cc23)O1 (stereo not shown)

Result ::
[4.0, 4.0, 4.5, 5.5]

====

What CASOB preemergence herbicidal rating was measured for each of the following?
Test system: CASOB (Cassia obtusifolia)
Assay: Preemergence herbicidal evaluation
Format: in vivo, L.
Details: Rate 0.2500 kg/ha; preemergence; rated 4-5 weeks after treatment
One number for each entry.

Observe how each entry below is paired with its result.
Cc1ccc(-c2nsc3ccc(-n4c(=O)cc(C(F)(F)F)n(C)c4=O)cc23)s1 [Compound 21] | 2.0
Cc1nnc(-c2nsc3ccc(-n4c(=O)cc(C(F)(F)F)n(C)c4=O)cc23)o1 [Compound 16] | 9.0
Cc1cccnc1-c1nsc2ccc(-n3c(=O)cc(C(F)(F)F)n(C)c3=O)cc12 [Compound 19] | 8.3

Dear colleague, could you please provide CASOB preemergence herbicidal rating for the molecules listed below?
1. Cc1csc(-c2nsc3ccc(-n4c(=O)cc(C(F)(F)F)n(C)c4=O)cc23)n1 [Compound 7]
2. Cn1c(C(F)(F)F)cc(=O)n(-c2ccc3snc(C4SCCS4)c3c2)c1=O [Compound 24]
3. Cc1ccn(-c2nsc3ccc(-n4c(=O)cc(C(F)(F)F)n(C)c4=O)cc23)n1 [Compound 38]
4. Cn1c(C(F)(F)F)cc(=O)n(-c2ccc3snc(C(SCCO)SCCO)c3c2)c1=O [Compound 33]
5. Cn1c(C(F)(F)F)cc(=O)n(-c2ccc3snc(C4OCCCO4)c3c2)c1=O [Compound 28]
6. Cn1cccc1-c1nsc2ccc(-n3c(=O)cc(C(F)(F)F)n(C)c3=O)cc12 [Compound 6]
7. CC1CCOC(c2nsc3ccc(-n4c(=O)cc(C(F)(F)F)n(C)c4=O)cc23)O1 (stereo not drawn) [Compound 37]

Result ::
1. 9.0
2. 3.0
3. 0.0
4. 0.0
5. 9.0
6. 0.0
7. 9.0

For each of the items listed, what is its CASOB preemergence herbicidal rating?
1. Cn1c(C(F)(F)F)cc(=O)n(-c2ccc3snc(C4OCC(C)(C)CO4)c3c2)c1=O [Compound 36]
2. CCOC(=O)C1CS[C@H](c2nsc3ccc(-n4c(=O)cc(C(F)(F)F)n(C)c4=O)cc23)N1 (stereo partly drawn) [Compound 2]

Result ::
1: 9.0; 2: 7.0

====

Tested on: GLXMAW (Soybean, Williams)
Assay: Preemergence herbicidal evaluation
Format: in vivo, Glycine max, (L.) Merr. cv Williams
Conditions: Rate 0.2500 kg/ha; preemergence; rated 4-5 weeks after treatment
METRIC NAME: GLXMAW preemergence herbicidal rating
Numbers only.

Known results for compounds:
COc1ccsc1-c1nsc2ccc(-n3c(=O)cc(C(F)(F)F)n(C)c3=O)cc12 | 2.5
Cn1c(C(F)(F)F)cc(=O)n(-c2ccc3snc(C4OCCCS4)c3c2)c1=O (stereo not shown) | 9.0
Cc1cscc1-c1nsc2ccc(-n3c(=O)cc(C(F)(F)F)n(C)c3=O)cc12 | 4.5
Cn1c(C(F)(F)F)cc(=O)n(-c2ccc3snc(C4SCCS4)c3c2)c1=O | 4.0
Cn1c(C(F)(F)F)cc(=O)n(-c2ccc3snc(-c4ncccn4)c3c2)c1=O | 9.0

# per-item lookup of GLXMAW preemergence herbicidal rating; items listed below
1. CCc1cc(-c2nsc3ccc(-n4c(=O)cc(C(F)(F)F)n(C)c4=O)cc23)c(CC)s1
2. Cn1c(C(F)(F)F)cc(=O)n(-c2ccc3snc(C4OCCS4)c3c2)c1=O (stereo not shown)
3. Cn1c(C(F)(F)F)cc(=O)n(-c2ccc3snc(-c4ccccn4)c3c2)c1=O
4. Cc1cc(C)c(-c2nsc3ccc(-n4c(=O)cc(C(F)(F)F)n(C)c4=O)cc23)s1
5. Cn1c(C(F)(F)F)cc(=O)n(-c2ccc3snc(C4OCCCO4)c3c2)c1=O

Result ::
[0.0, 9.0, 8.7, 1.0, 9.0]

====

Tested on: AMBEL (Ambrosia artemisifolia)
Assay: Postemergence herbicidal evaluation
Format: in vivo, L.
Conditions: rate 0.0620 kg/ha
METRIC NAME: Postemergence herbicidal rating, AMBEL

// each listed compound needs a value for Postemergence herbicidal rating, AMBEL
1. Cn1ccnc1-c1nsc2ccc(-n3c(=O)cc(C(F)(F)F)n(C)c3=O)cc12 [Compound 5]
2. Cn1c(C(F)(F)F)cc(=O)n(-c2cc3c(-c4ccccn4)nsc3cc2F)c1=O [Compound 25]
3. Cc1cccnc1-c1nsc2cc(F)c(N3C(=O)C4=C(CCCC4)C3=O)cc12 [Compound 46]
4. COc1ccsc1-c1nsc2ccc(-n3c(=O)cc(C(F)(F)F)n(C)c3=O)cc12 [Compound 10]
5. COC(=O)C(C)Oc1ccsc1-c1nsc2ccc(-n3c(=O)cc(C(F)(F)F)n(C)c3=O)cc12 (stereo not drawn) [Compound 23]
6. Cn1c(C(F)(F)F)cc(=O)n(-c2ccc3snc(C4OCCS4)c3c2)c1=O (stereo not drawn) [Compound 31]

Result ::
9.0
9.0
9.0
3.0
6.0
9.0
